system: Escherichia coli; test: Antibacterial activity against Escherichia coli ATCC 25922 after 24 hrs; type: functional; conditions: ATCC 25922, 24 h
The entries below come with measured MIC values attached.

Previously resolved entries follow.
NCCc1cc(Br)c(O)c(Br)c1: > 100 µg/mL
Oc1ccc(Cc2cc(Br)c(O)c(Br)c2)cc1Br: > 100 µg/mL
CC1(C)S[C@@H]2[C@H](NC(=O)[C@H](N)c3ccccc3)C(=O)N2[C@H]1C(=O)O [AMPICILLIN]: 12.5 µg/mL
Oc1cc(Cc2cc(O)c(O)c(Br)c2Br)c(Br)c(Br)c1O: > 100 µg/mL
OCc1cc(O)c(O)cc1Cc1ccc(O)c(O)c1: > 100 µg/mL

Entry Oc1ccccc1Cc1cc(Br)ccc1O , MIC reported as > 100 µg/mL

In plain terms, COCc1cc(O)c(O)c(Br)c1Cc1cc(O)c(O)c(Br)c1Br has a documented MIC of > 100 µg/mL

Record Oc1ccc(Br)cc1Cc1cc(Br)ccc1O . Reported MIC: > 100 µg/mL

// Oc1ccc(Cc2ccc(O)c(O)c2)cc1O : MIC value = > 100 µg/mL

The reported value for OCc1cc(O)c(O)c(Br)c1Cc1cc(O)c(O)c(Br)c1Br in terms of MIC is > 100 µg/mL

The reported MIC of the compound Oc1ccc(Cc2ccc(O)c(Br)c2)cc1Br was > 100 µg/mL

The compound Oc1c(Br)cc(Cc2cc(Br)c(O)c(Br)c2O)c(O)c1Br showed MIC equal to > 100 µg/mL

// OCc1cc(O)c(O)c(Br)c1Br [LANOSOL] : MIC value = > 100 µg/mL

Entry under test: Oc1c(Br)cc(Cc2cc(Br)c(O)c(Br)c2)cc1Br . Its MIC was > 100 µg/mL

// field: MIC; key: COCc1cc(O)c(O)c(Br)c1Br ; value = > 100 µg/mL

// recorded MIC for Oc1c(Br)cc(Br)cc1Cc1cc(Br)cc(Br)c1O : > 100 µg/mL

* * *

system: Bacillus subtilis; experiment: Antibacterial activity against Bacillus subtilis ATCC 6633 after 24 hrs; type: functional; conditions: ATCC 6633, 24 h
Quick reference for MIC among some compounds

Oc1c(Br)cc(Cc2cc(Br)c(O)c(Br)c2O)c(O)c1Br: > 100 µg/mL
OCc1cc(O)c(O)cc1Cc1ccc(O)c(O)c1: > 100 µg/mL

Input OCc1cc(O)c(O)c(Br)c1Cc1cc(O)c(O)c(Br)c1Br . Output MIC: 100 µg/mL

The recorded MIC for entry Oc1ccccc1Cc1cc(Br)ccc1O equals 25 µg/mL

Consider OCc1cc(O)c(O)c(Br)c1Br [LANOSOL] . Its measured MIC is > 100 µg/mL

Value of measured MIC for the entry NCCc1cc(Br)c(O)c(Br)c1 : > 100 µg/mL

Record summary for CC1(C)S[C@@H]2[C@H](NC(=O)[C@H](N)c3ccccc3)C(=O)N2[C@H]1C(=O)O [AMPICILLIN] : reported MIC = 1.56 µg/mL

In plain terms, Oc1c(Br)cc(Cc2cc(Br)c(O)c(Br)c2)cc1Br has a documented MIC of > 100 µg/mL

Measured MIC of Oc1ccc(Br)cc1Cc1cc(Br)ccc1O : 3.12 µg/mL

Form field MIC, entry Oc1ccc(Cc2ccc(O)c(O)c2)cc1O : > 100 µg/mL

For record COCc1cc(O)c(O)c(Br)c1Br the listed MIC is > 100 µg/mL
